test system: Shewanella sp. (TC11); experiment: Anti-adhesion test, strain TC11; format: cell-based; conditions: read-out: EC50 (effective concentration to inhibit 50% of the adhesion), strain TC11
MEASUREMENT LABEL: pEC50
Expect pEC50 as a plain number equal to -log10 of the molar concentration.

Please review the entries below; each comes with its answer.
SMILES RECORD: CN(C)CCOc1ccc(-n2cc(-c3ccc(-c4cn(-c5ccc(OCCN(C)C)cc5)nn4)cc3)nn2)cc1
TARGET: Shewanella sp. (TC11)
MEASUREMENT LABEL: pEC50
OBSERVED MEASUREMENT: 3.85

SMILES RECORD: CN(C)CCCOc1ccc(CCn2cc(-c3ccc(-c4cn(CCc5ccc(OCCCN(C)C)c(Cl)c5)nn4)cc3)nn2)cc1Cl
TARGET: Shewanella sp. (TC11)
MEASUREMENT LABEL: pEC50
OBSERVED MEASUREMENT: 3.82

(Q) Fill in pEC50 for record CN(C)CCCOc1c(Br)cc(CCn2cc(-c3ccc(-c4cn(CCc5cc(Br)c(OCCCN(C)C)c(Br)c5)nn4)cc3)nn2)cc1Br
(A) 4.57
